# measuredOn: intracellular LCE in H2.35 cells originating in mouse liver (Mus musculus)
# Construct: endogenous in cells
# Sequence (Q920L5 1-267): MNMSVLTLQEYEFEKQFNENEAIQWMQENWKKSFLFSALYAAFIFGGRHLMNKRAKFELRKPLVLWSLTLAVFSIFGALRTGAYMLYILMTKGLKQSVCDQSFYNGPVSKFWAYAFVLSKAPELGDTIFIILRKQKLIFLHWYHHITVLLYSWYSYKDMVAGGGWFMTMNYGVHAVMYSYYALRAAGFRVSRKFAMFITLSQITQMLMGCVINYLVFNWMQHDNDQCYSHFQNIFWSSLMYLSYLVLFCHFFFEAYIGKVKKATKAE
# assayOverview: Intracellular LCE activity inhibition test
# conditions: [14C]-palmitoyl CoA, C18/C16 ratio by radio HPLC
pIC50: −log10 of the molar value.
reportedProperty: pIC50

- compound: "Cc1[nH]n(-c2ccc(C(C)(C)C)cc2)c(=O)c1C1(C(F)(F)F)C(=O)N(c2ccccc2)C2=C1C(=O)CC(C)(C)C2 (centres unmarked)"
  measured: 8.38

A: Cc1[nH]n(-c2ccc(S(C)(=O)=O)cc2)c(=O)c1C1(C(F)(F)F)C(=O)N(c2ccccc2)C2=C1C(=O)CC(C)(C)C2 (centres unmarked)
B: COc1ccc(-n2[nH]c(C)c(C3(C(F)(F)F)C(=O)N(c4ccccc4)C4=C3C(=O)CC(C)(C)C4)c2=O)cc1 (centres unmarked)
C: Cc1[nH]n(-c2ccc(C(F)(F)F)cc2)c(=O)c1C1(C(F)(F)F)C(=O)N(c2ccccc2)C2=C1C(=O)CC(C)(C)C2 (centres unmarked)
Ask: # ascending order, key=pIC50 // rank by listing labels in the order requested
Result: A, B, C
(A: 8.15, B: 8.51, C: 8.92)
